Tested on: Escherichia coli TOP10
Experiment: shrunken log2 fold change of peptide-encoding DNA abundance (4.5 h post-induction vs induction); higher = less antimicrobial activity (less host growth inhibition)
Conditions: time post-induction: 4.5 h; library: site-saturation at positions 5, 18, 19, 20
Category key, based on recorded shrunken log2 fold change: class 1: < -0.08; class 2: ≥ -0.08 and < 0.1; class 3: ≥ 0.1

Please review the entries below; each comes with its answer.
> print(dat)
        construct.sequence  assigned.class
1  RRIRHRPPRLPRPRPRPCSLPRP         class 1
2  RRIRLRPPRLPRPRPRPYIDPRP         class 2
3  RRIRQRPPRLPRPRPRPFCFPRP         class 3
4  RRIRPRPPRLPRPRPRPDVWPRP         class 3
5  RRIRNRPPRLPRPRPRPESHPRP         class 2

Query: Field: class (shrunken log2 fold change) — entry: `RRIRGRPPRLPRPRPRPYVWPRP`
Reply: class 3

Query: Field: class (shrunken log2 fold change) — entry: `RRIRPRPPRLPRPRPRPIYAPRP`
Reply: class 1

Query: Field: class (shrunken log2 fold change) — entry: `RRIRPRPPRLPRPRPRPRICPRP`
Reply: class 2

Query: Field: class (shrunken log2 fold change) — entry: `RRIRIRPPRLPRPRPRPEYMPRP`
Reply: class 1

* * *

System: Escherichia coli TOP10
Experiment: shrunken log2 fold change of peptide-encoding DNA abundance (4.5 h post-induction vs induction); higher = less antimicrobial activity (less host growth inhibition)
Settings: time post-induction: 4.5 h; library: site-saturation at positions 5, 18, 19, 20
So basically: shrunken log2 fold change at 0.2 or higher? That is satisfied. Lower than 0.2? That is not satisfied.

Please review the entries below; each comes with its answer.
> print(dat)
        construct.sequence  assigned.class
1  RRIRPRPPRLPRPRPRPPVEPRP   not satisfied
2  RRIRWRPPRLPRPRPRPGFEPRP       satisfied
3  RRIRNRPPRLPRPRPRPIRYPRP   not satisfied

Query: Is the recorded value of shrunken log2 fold change equal to or greater than 0.2 for this sequence? `RRIRDRPPRLPRPRPRPEWSPRP`
Reply: satisfied

Query: Is the recorded value of shrunken log2 fold change equal to or greater than 0.2 for this sequence? `RRIRKRPPRLPRPRPRPLSCPRP`
Reply: not satisfied

Query: Is the recorded value of shrunken log2 fold change equal to or greater than 0.2 for this sequence? `RRIRCRPPRLPRPRPRPVKCPRP`
Reply: not satisfied

Query: Is the recorded value of shrunken log2 fold change equal to or greater than 0.2 for this sequence? `RRIRNRPPRLPRPRPRPDIDPRP`
Reply: not satisfied

Query: Is the recorded value of shrunken log2 fold change equal to or greater than 0.2 for this sequence? `RRIRQRPPRLPRPRPRPNGYPRP`
Reply: not satisfied

Query: Is the recorded value of shrunken log2 fold change equal to or greater than 0.2 for this sequence? `RRIRGRPPRLPRPRPRPKRFPRP`
Reply: not satisfied

Query: Is the recorded value of shrunken log2 fold change equal to or greater than 0.2 for this sequence? `RRIRFRPPRLPRPRPRPIFFPRP`
Reply: not satisfied

Query: Is the recorded value of shrunken log2 fold change equal to or greater than 0.2 for this sequence? `RRIRIRPPRLPRPRPRPNDEPRP`
Reply: not satisfied

Query: Is the recorded value of shrunken log2 fold change equal to or greater than 0.2 for this sequence? `RRIRVRPPRLPRPRPRPQSYPRP`
Reply: not satisfied

Query: Is the recorded value of shrunken log2 fold change equal to or greater than 0.2 for this sequence? `RRIRMRPPRLPRPRPRPIFPPRP`
Reply: satisfied

Query: Is the recorded value of shrunken log2 fold change equal to or greater than 0.2 for this sequence? `RRIRDRPPRLPRPRPRPTPKPRP`
Reply: satisfied

Query: Is the recorded value of shrunken log2 fold change equal to or greater than 0.2 for this sequence? `RRIRTRPPRLPRPRPRPNEWPRP`
Reply: not satisfied

Query: Is the recorded value of shrunken log2 fold change equal to or greater than 0.2 for this sequence? `RRIRFRPPRLPRPRPRPKWEPRP`
Reply: satisfied

* * *

System: Escherichia coli TOP10
Assay: shrunken log2 fold change of peptide-encoding DNA abundance (4.5 h post-induction vs induction); higher = less antimicrobial activity (less host growth inhibition)
Details: time post-induction: 4.5 h; library: site-saturation at positions 5, 18, 19, 20
measured.endpoint: shrunken log2 fold change
Numbers only.

Reference set, count: 3
> print(dat)
        construct.sequence          measured.endpoint  observed
1  RRIRGRPPRLPRPRPRPQQSPRP  shrunken log2 fold change     0.465
2  RRIRVRPPRLPRPRPRPKHGPRP  shrunken log2 fold change   -0.0119
3  RRIRRRPPRLPRPRPRPNKRPRP  shrunken log2 fold change   -0.0621

Record shrunken log2 fold change per entry; entries follow.
1. RRIRLRPPRLPRPRPRPRLVPRP
2. RRIRKRPPRLPRPRPRPRVDPRP

Reply:
1. 0.0317
2. 0.0968

Record shrunken log2 fold change per entry; entries follow.
1. RRIRERPPRLPRPRPRPNEAPRP
2. RRIRQRPPRLPRPRPRPLQTPRP
3. RRIRYRPPRLPRPRPRPSVHPRP

Reply:
1: -0.0218; 2: -0.339; 3: -0.284

* * *

System: Escherichia coli TOP10
Assay: shrunken log2 fold change of peptide-encoding DNA abundance (4.5 h post-induction vs induction); higher = less antimicrobial activity (less host growth inhibition)
Settings: time post-induction: 4.5 h; library: site-saturation at positions 5, 18, 19, 20
measured.endpoint: shrunken log2 fold change
Give bare numbers.

Reference set, count: 3
> print(dat)
        construct.sequence          measured.endpoint  observed
1  RRIRWRPPRLPRPRPRPWIEPRP  shrunken log2 fold change    0.0929
2  RRIRNRPPRLPRPRPRPWMMPRP  shrunken log2 fold change    -0.594
3  RRIRPRPPRLPRPRPRPLEHPRP  shrunken log2 fold change    -0.565

Record shrunken log2 fold change per entry; entries follow.
1. RRIRNRPPRLPRPRPRPNPRPRP
2. RRIRWRPPRLPRPRPRPKVDPRP
3. RRIRYRPPRLPRPRPRPKRSPRP
4. RRIRDRPPRLPRPRPRPPAWPRP
5. RRIRNRPPRLPRPRPRPQSYPRP

Reply:
0.286
0.0401
-0.113
0.811
0.0549

Record shrunken log2 fold change per entry; entries follow.
1. RRIRIRPPRLPRPRPRPRAWPRP
2. RRIRARPPRLPRPRPRPQYQPRP
3. RRIRRRPPRLPRPRPRPVYVPRP
4. RRIRPRPPRLPRPRPRPFEQPRP

Reply:
0.187
-0.243
-0.198
-0.281

* * *

Tested on: Escherichia coli TOP10;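 further: peptides expressed intracellularly from a pBAD plasmid library in pooled LB shake-flask culture, induced with 0.3% L-arabinose, DNA abundance read by NGS, three biological replicates, DESeq2 with apeglm shrinkage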
Assay: shrunken log2 fold change of peptide-encoding DNA abundance (4.5 h post-induction vs induction); higher = less antimicrobial activity (less host growth inhibition)
Details: time post-induction: 4.5 h; library: site-saturation at positions 5, 18, 19, 20
measured.endpoint: shrunken log2 fold change
One number for each entry.

Reference set, count: 5
> print(dat)
        construct.sequence          measured.endpoint  observed
1  RRIRVRPPRLPRPRPRPRWFPRP  shrunken log2 fold change   -0.0978
2  RRIRARPPRLPRPRPRPWSIPRP  shrunken log2 fold change   -0.0906
3  RRIRERPPRLPRPRPRPSYMPRP  shrunken log2 fold change   -0.0864
4  RRIRQRPPRLPRPRPRPWLCPRP  shrunken log2 fold change   -0.0571
5  RRIRKRPPRLPRPRPRPGAHPRP  shrunken log2 fold change     0.663

Record shrunken log2 fold change per entry; entries follow.
1. RRIRWRPPRLPRPRPRPKRFPRP
2. RRIRFRPPRLPRPRPRPYWVPRP
3. RRIRVRPPRLPRPRPRPVCIPRP
4. RRIRTRPPRLPRPRPRPPEEPRP
5. RRIRNRPPRLPRPRPRPDRVPRP
6. RRIRHRPPRLPRPRPRPWWKPRP
7. RRIRQRPPRLPRPRPRPKKAPRP
8. RRIRNRPPRLPRPRPRPNLIPRP

Reply:
1: 0.729; 2: -0.683; 3: -0.0826; 4: -0.00968; 5: -0.275; 6: -0.0848; 7: -0.15; 8: -0.369

Record shrunken log2 fold change per entry; entries follow.
1. RRIRRRPPRLPRPRPRPRMYPRP
2. RRIRERPPRLPRPRPRPMNYPRP

Reply:
[-0.152, -0.981]

Record shrunken log2 fold change per entry; entries follow.
1. RRIRERPPRLPRPRPRPQIHPRP
2. RRIRYRPPRLPRPRPRPPSQPRP

Reply:
[-0.835, 0.0859]

Record shrunken log2 fold change per entry; entries follow.
1. RRIRMRPPRLPRPRPRPAIYPRP
2. RRIRGRPPRLPRPRPRPIVVPRP
3. RRIRERPPRLPRPRPRPLENPRP
4. RRIRDRPPRLPRPRPRPYAHPRP
5. RRIRQRPPRLPRPRPRPNPYPRP
6. RRIRTRPPRLPRPRPRPVITPRP

Reply:
[0.0389, 0.962, 0.0225, -0.31, -0.0811, 0.0105]
